Freeze-Thaw Stability (Three Cycles), RE: recorded values
Assay: Stability of the nine components in rat plasma QC samples (auto-sampler, freeze-thaw, long-term)
Type: physicochemical
Conditions: rat plasma, MQC spiked 500 ng/mL (1000 ng/mL for II), n = 5
Report as a plain number; the unit % is understood.

O=C(/C=C/c1ccc(O)c(O)c1)O[C@@H]1C[C@](O)(C(=O)O)C[C@@H](O)[C@H]1O [III, chlorogenic acid]    −5.77

Dear colleague, I am looking for the recorded Freeze-Thaw Stability (Three Cycles), RE of the following compound: O=c1cc(-c2ccc(O)c(O)c2)oc2cc(O[C@@H]3O[C@H](CO[C@@H]4O[C@H](CO)[C@@H](O)[C@H](O)[C@H]4O)[C@@H](O)[C@H](O)[C@H]3O)cc(O)c12 [Compound VI, luteolin-7-O-β-D-gentiobioside] −3.78
